biological target: BBN receptor (Homo sapiens, UniProt P30550); construct: endogenous in cells; host or cells: NCI-H345 (human SCLC); assay: Cytosolic Ca++ assay in SCLC cell line NCI-H345; format: cell-based; parameters: key: antagonized (A); had no effect (--) on the ability of 10 nM BBN to; details: compound 10 μM; 10 nM BBN elevation of cytosolic Ca++
Sequence (P30550 whole entry): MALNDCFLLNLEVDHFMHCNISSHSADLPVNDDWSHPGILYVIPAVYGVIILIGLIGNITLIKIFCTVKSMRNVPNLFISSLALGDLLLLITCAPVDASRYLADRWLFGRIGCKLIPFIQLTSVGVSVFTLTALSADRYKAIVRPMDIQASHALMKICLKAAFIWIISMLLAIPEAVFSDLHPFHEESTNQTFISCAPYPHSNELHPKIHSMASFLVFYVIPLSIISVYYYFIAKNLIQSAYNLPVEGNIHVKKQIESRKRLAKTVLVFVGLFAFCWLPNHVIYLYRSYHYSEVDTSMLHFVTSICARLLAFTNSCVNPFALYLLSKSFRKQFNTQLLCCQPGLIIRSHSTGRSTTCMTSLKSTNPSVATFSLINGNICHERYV
Positions of bridges follow the written chain, without caps; N, C: chain ends. Non-standard residues stand in square brackets, D forms with d. Residues, ends and D or L forms follow the SMILES beside them. *: point of attachment. NH(4-Br-phenethyl) = Brc1ccc(CCN*)cc1; 1Naphthoyl = O=C(c1cccc2ccccc12)*; BrAc = O=C(CBr)*
ATTRIBUTE_MEASURED: Ca++ effect

- COMPOUND: "CCOC(=O)[C@H](CC(C)C)NC(=O)[C@H](Cc1c[nH]cn1)NC(=O)[C@@H](C)NC(=O)[C@@H](NC(=O)[C@H](C)NC(=O)[C@H](Cc1c[nH]c2ccccc12)NC(=O)[C@H](CCC(N)=O)NC(=O)[C@H](CC(N)=O)NC(=O)CBr)C(C)C [PTC 816] (BrAc-NQWAV[dA]HL-OEt)"
  TARGET_ENTITY: "BBN receptor (Homo sapiens, UniProt P30550)"
  ATTRIBUTE_MEASURED: "Ca++ effect"
  ASSAY_VALUE: "A"
- COMPOUND: "CCOC(=O)[C@H](CC(C)C)NC(=O)[C@H](Cc1c[nH]cn1)NC(=O)[C@@H](C)NC(=O)[C@@H](NC(=O)[C@H](C)NC(=O)[C@H](Cc1c[nH]c2ccccc12)NC(=O)[C@H](Cc1c[nH]cn1)NC(C)=O)C(C)C [PTC 818] (Ac-HWAV[dA]HL-OEt)"
  TARGET_ENTITY: "BBN receptor (Homo sapiens, UniProt P30550)"
  ATTRIBUTE_MEASURED: "Ca++ effect"
  ASSAY_VALUE: "A"
- COMPOUND: "CC(=O)N[C@@H]1CCCCNC(=O)[C@H](CC(C)C)NC(=O)[C@H](Cc2c[nH]cn2)NC(=O)[C@H](C)NC(=O)[C@H](C(C)C)NC(=O)[C@H](C)NC(=O)[C@H](Cc2c[nH]c3ccccc23)NC(=O)[C@H](CCC(N)=O)NC(=O)[C@H](CC(N)=O)NC1=O [PTC 805] (Ac-[dK]NQWAVAHL; lactam 1-C)"
  TARGET_ENTITY: "BBN receptor (Homo sapiens, UniProt P30550)"
  ATTRIBUTE_MEASURED: "Ca++ effect"
  ASSAY_VALUE: "--"
- COMPOUND: "CC(=O)N[C@@H]1CCCCNC(=O)[C@H](CC(C)C)NC(=O)[C@H](Cc2c[nH]cn2)NC(=O)[C@@H](C)NC(=O)[C@H](C(C)C)NC(=O)[C@H](C)NC(=O)[C@H](Cc2c[nH]c3ccccc23)NC(=O)[C@H](CCC(N)=O)NC(=O)[C@H](CC(N)=O)NC1=O [PTC 804] (Ac-[dK]NQWAV[dA]HL; lactam 1-C)"
  TARGET_ENTITY: "BBN receptor (Homo sapiens, UniProt P30550)"
  ATTRIBUTE_MEASURED: "Ca++ effect"
  ASSAY_VALUE: "--"
- COMPOUND: "CC(C)C[C@@H]1NC(=O)[C@H](Cc2c[nH]cn2)NC(=O)[C@@H](C)NC(=O)[C@H](C(C)C)NC(=O)[C@H](C)NC(=O)[C@H](Cc2c[nH]c3ccccc23)NC(=O)[C@H](CCC(N)=O)NC(=O)[C@H](CC(N)=O)NC(=O)[C@H](NC(=O)c2cccc3ccccc23)CCCCNC1=O [PTC 808] (1Naphthoyl-[dK]NQWAV[dA]HL; lactam 1-C)"
  TARGET_ENTITY: "BBN receptor (Homo sapiens, UniProt P30550)"
  ATTRIBUTE_MEASURED: "Ca++ effect"
  ASSAY_VALUE: "--"

Supply measured Ca++ effect of CC(=O)N[C@@H](Cc1c[nH]cn1)C(=O)N[C@@H](Cc1c[nH]c2ccccc12)C(=O)N[C@@H](C)C(=O)N[C@H](C(=O)N[C@H](C)C(=O)N[C@@H](Cc1c[nH]cn1)C(=O)NCCc1ccc(Br)cc1)C(C)C [PTC 820] (Ac-HWAV[dA]H-{NH(4-Br-phenethyl)}) in your reply. --

----------
molecular target: BBN receptor (Rattus norvegicus); experiment: Stimulation of amylase release from rat pancreatic acinar cells by the compound alone (agonist test)
Sequence (P52500 whole entry): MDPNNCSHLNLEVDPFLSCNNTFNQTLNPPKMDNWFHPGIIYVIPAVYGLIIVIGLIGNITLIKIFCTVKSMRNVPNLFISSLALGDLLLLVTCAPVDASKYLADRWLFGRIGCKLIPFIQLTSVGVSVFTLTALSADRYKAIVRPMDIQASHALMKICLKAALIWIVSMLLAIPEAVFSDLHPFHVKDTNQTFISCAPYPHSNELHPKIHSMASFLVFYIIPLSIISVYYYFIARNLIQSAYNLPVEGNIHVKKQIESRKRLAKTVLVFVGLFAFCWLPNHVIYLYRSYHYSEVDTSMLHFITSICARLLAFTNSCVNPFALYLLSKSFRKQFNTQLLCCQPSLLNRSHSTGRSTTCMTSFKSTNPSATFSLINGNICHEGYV
Non-standard residues stand in square brackets, D forms with d. Residues, ends and D or L forms follow the SMILES beside them.
ATTRIBUTE_MEASURED: EC50

Identify measured EC50 corresponding to CCOC(=O)[C@H](CC(C)C)NC(=O)[C@H](Cc1c[nH]cn1)NC(=O)[C@@H](C)NC(=O)[C@@H](NC(=O)[C@H](C)NC(=O)[C@H](Cc1c[nH]c2ccccc12)NC(=O)[C@H](Cc1c[nH]cn1)NC(C)=O)C(C)C [PTC 818] (Ac-HWAV[dA]HL-OEt) > 3 µM

----------
Test system: NCI-H345
Assay: Clonagenic assay, colony formation of NCI-H345
Format: cell-based, human
Parameters: key: significantly reduced (R); had no effect (--) on th
Details: compound 1 μM; clonal growth of a human tumor cell line
Protocol: The effect of 1 to 1000 nM concentration of peptides on growth of NCI-H345 colonies stimulated by 10 nM BBN was measured in the agarose cloning system (Mahoud et al., Cancer Res. 51:1798 (1991); Staley et al., Peptides 12:145-149 (1991)). […] On the day of the assay, cells were harvested, centrifuged and suspended in the buffer. The agarose cloning system consisted of 3 ml of 0.5% agarose in SIT medium with 5% fetal bovine serum in six well plates. […]
Positions of bridges follow the written chain, without caps; N, C: chain ends. Non-standard residues stand in square brackets, D forms with d. Residues, ends and D or L forms follow the SMILES beside them. *: point of attachment. NH(4-Br-phenethyl) = Brc1ccc(CCN*)cc1; BrAc = O=C(CBr)*; NHPr = CCCN*

- MOLECULE: "CCOC(=O)[C@H](CC(C)C)NC(=O)[C@H](Cc1c[nH]cn1)NC(=O)[C@@H](C)NC(=O)[C@@H](NC(=O)[C@H](C)NC(=O)[C@H](Cc1c[nH]c2ccccc12)NC(=O)[C@H](CCC(N)=O)NC(=O)[C@H](CC(N)=O)NC(=O)CBr)C(C)C [PTC 816] (BrAc-NQWAV[dA]HL-OEt)"
  Growth: "R"
- MOLECULE: "CCCNC(=O)[C@H]1CCC(=O)NCCCC[C@H](NC(C)=O)C(=O)N[C@@H](Cc2c[nH]c3ccccc23)C(=O)N[C@@H](C)C(=O)N[C@@H](C(C)C)C(=O)N[C@H](C)C(=O)N[C@@H](Cc2c[nH]cn2)C(=O)N1 [PCT 812] (Ac-KWAV[dA]H[dE]-NHPr; lactam 1-7)"
  Growth: "R"
- MOLECULE: "CC(=O)N[C@@H](Cc1c[nH]cn1)C(=O)N[C@@H](Cc1c[nH]c2ccccc12)C(=O)N[C@@H](C)C(=O)N[C@H](C(=O)N[C@H](C)C(=O)N[C@@H](Cc1c[nH]cn1)C(=O)NCCc1ccc(Br)cc1)C(C)C [PTC 820] (Ac-HWAV[dA]H-{NH(4-Br-phenethyl)})"
  Growth: "--"
- MOLECULE: "CCOC(=O)[C@H](CC(C)C)NC(=O)[C@H](Cc1c[nH]cn1)NC(=O)[C@@H](C)NC(=O)[C@@H](NC(=O)[C@H](C)NC(=O)[C@H](Cc1c[nH]c2ccccc12)NC(=O)[C@H](Cc1c[nH]cn1)NC(C)=O)C(C)C [PTC 818] (Ac-HWAV[dA]HL-OEt)"
  Growth: "R"

----------
Target: BBN receptor (Homo sapiens, UniProt P30550)
Construct: endogenous in cells; host or cells: NCI-H345 (human SCLC)
Experiment: Inhibition of [125I]Tyr4-BBN binding to SCLC NCI-H345 membranes
Conditions: 50% inhibition of specific [125I]Tyr4-BBN binding, NCI-H345; read-out: IC50
Method: Acinar cells from rat pancreas bind BBN and secrete amylase when treated with BBN. […] Finally, antagonist activity of the compounds was determined by measuring the ability of compounds to prevent the release of amylase from cells in response to BBN. […] The binding of synthetic compounds to cellular membranes prepared from NCI-H345 was determined. The ability of potential antagonists to block the BBN-stimulated increase in cytosolic levels of Ca^++ was determined. […]
Positions of bridges follow the written chain, without caps; N, C: chain ends. Non-standard residues stand in square brackets, D forms with d. Residues, ends and D or L forms follow the SMILES beside them. *: point of attachment. NHPr = CCCN*
Would you kindly list pIC50 for each of these compounds?
Numbers only, as −log10 of the molar value.

- COMPOUND: "CC(=O)N[C@@H]1CCCCNC(=O)[C@H](CC(C)C)NC(=O)[C@H](Cc2c[nH]cn2)NC(=O)[C@@H](C)NC(=O)[C@H](C(C)C)NC(=O)[C@H](C)NC(=O)[C@H](Cc2c[nH]c3ccccc23)NC(=O)[C@H](CCC(N)=O)NC(=O)[C@H](CC(N)=O)NC1=O [PTC 804] (Ac-[dK]NQWAV[dA]HL; lactam 1-C)"
  pIC50: 5.22
- COMPOUND: "CCOC(=O)[C@H](CC(C)C)NC(=O)[C@H](Cc1c[nH]cn1)NC(=O)[C@@H](C)NC(=O)[C@@H](NC(=O)[C@H](C)NC(=O)[C@H](Cc1c[nH]c2ccccc12)NC(=O)[C@H](Cc1c[nH]cn1)NC(C)=O)C(C)C [PTC 818] (Ac-HWAV[dA]HL-OEt)"
  pIC50: 7.60

Now let's try a different one.
Look up BBN receptor (Homo sapiens, UniProt P30550) data: pIC50 of CCCNC(=O)[C@H]1CCC(=O)NCCCC[C@H](NC(C)=O)C(=O)N[C@@H](Cc2c[nH]c3ccccc23)C(=O)N[C@@H](C)C(=O)N[C@@H](C(C)C)C(=O)N[C@H](C)C(=O)N[C@@H](Cc2c[nH]cn2)C(=O)N1 [PCT 812] (Ac-KWAV[dA]H[dE]-NHPr; lactam 1-7) , then report it. 5.40
